MEASURED TARGET: Glutamate NMDA receptor
EXPERIMENT SUMMARY: Displacement of [3H]glycine from NMDA receptor in rat cerebral cortex membrane
Type: cell membranes
Hi! Just check whether Log Ki is below -7. Below gives 1, equal or above gives -1.

# example entries with known answers
O=C([O-])C1C/C(=C2/CCCN(c3ccccc3)C2=O)c2ccc(Cl)cc2N1.[Na+] (stereo not given)	-1
O=C([O-])C1C/C(=C2/NC(=O)N(c3ccccc3)C2=O)c2ccc(Cl)cc2N1.[Na+] (stereo not given)	1
O=C([O-])C1C/C(=C2/CC(=O)N(c3ccccc3)C2=O)c2ccc(Cl)cc2N1.[Na+] (stereo not given)	-1
O=C(/C=C1\CC(C(=O)[O-])Nc2cc(Cl)ccc21)Nc1ccccc1.[Na+] (stereo not given)	1

Next, consider the following compound.
Query string: Take the compound O=C([O-])c1[nH]c2cc(Cl)cc(Cl)c2c1/C=C1\CCN(c2ccccc2)C1=O.[Na+] and say whether its Log Ki is less than -7.
Result string: 1
